# target desc: WNV NS5 WT
# method: MTase-Glo luminescence methyltransferase assay
# Format: biochemical, Orthoflavivirus nilense
# recorded conditions: poly-A RNA acceptor, 20 µM SAM, pH 9, 30 °C, 25 min; MTase activity
// reported IC50 per item
Numeric answer only, unit µM assumed.

Nc1ncnc2c1ncn2[C@@H]1O[C@H](CNC(=O)C(c2ccccc2)(c2ccccc2)c2ccccc2)[C@@H](O)[C@H]1O [compound 1]    21.6

Now, please, on to the next molecule.
Record summary for Nc1ncnc2c1ncn2[C@@H]1O[C@H](C[C@@H](N)CC[C@H](N)C(=O)O)[C@@H](O)[C@H]1O [sinefungin] : reported IC50 = 3.6
